System: modified version of the GPR119 receptor (94% identity to human receptor)
Experiment: cAMP production assay (LANCE cAMP kit, TR-FRET) in HEK-293 cells
Assay type: cell-based
Details: increase in cAMP relative to basal levels; agonist activity if 1.5-fold or greater
Method: The assay utilized HEK-293 cells that stably express a modified version of the GPR119 receptor (94% identity to human receptor), under the control of a CMV promoter containing a tet-on element for tetracycline-inducible expression. GPR119 agonist-induced cyclic AMP (cAMP) production was measured in this cell line using the LANCE cAMP kit (Perkin Elmer, Waltham, Mass.). […] Cellular cAMP levels were then determined by interpolation of raw signal data using a cAMP standard curve. […]
label 1 if Fold over baseline is below 3. label 0 if not; exact matches included in label 0.

# entry-smiles, answer-label
rows = [
    ("CC(C)(C)n1nnc(N2CCC(N3CC[C@H](Oc4ccc(S(C)(=O)=O)cc4F)C3=O)CC2)n1", "label 0"),
    ("COC(C)(C)c1nsc(N2CCC(N3CC[C@H](Oc4c(F)cc(S(C)(=O)=O)cc4F)C3=O)CC2)n1", "label 0"),
    ("CS(=O)(=O)c1ccc(N[C@H]2CCCN(C3CCN(c4nc(-c5ccccc5)ns4)CC3)C2=O)c(F)c1", "label 1"),
    ("CC(C)c1nsc(N2CCC(N3CC[C@H](Nc4ncc(S(C)(=O)=O)cn4)C3=O)CC2)n1", "label 1"),
    ("CC(C)c1nsc(N2CCC(N3CC[C@H](Oc4ccc(S(C)(=O)=O)c(F)c4)C3=O)CC2)n1", "label 0"),
    ("CC(C)c1nsc(N2CCC(N3CC[C@H](Nc4ccc(S(C)(=O)=O)cc4Cl)C3=O)CC2)n1", "label 0"),
    ("CS(=O)(=O)c1ccc(O[C@H]2CCN(C3CCN(c4nc(C(F)(F)F)ns4)CC3)C2=O)c(F)c1", "label 0"),
]

----------
test system: modified version of the GPR119 receptor (94% identity to human receptor); assay: cAMP production assay (LANCE cAMP kit, TR-FRET) in HEK-293 cells; type: cell-based; conditions: HEK-293 cells stably expressing modified GPR119; test compounds 0.2 nM to 10 μM, one-hour incubation

# compound, cAMP production in HEK-293 cells, nmol
records = [
    ("CC(C)c1nsc(N2CCC(N3CC[C@H](N(C)c4cc(F)c(S(C)(=O)=O)cc4F)C3=O)CC2)n1", 17.2),
    ("CCS(=O)(=O)c1ccc(OC2CCN(C3CCN(c4nc(-c5ccccc5)ns4)CC3)C2=O)c(F)c1 (stereo not drawn)", 14.0),
    ("CC(C)c1nsc(N2CCC(N3CCC(Oc4ccc(-c5nnn(C)n5)cc4)C3=O)CC2)n1 (stereo not drawn)", 14.9),
    ("Cc1ncccc1-c1nsc(N2CCC(N3CC[C@H](Oc4ccc(S(C)(=O)=O)cc4F)C3=O)CC2)n1", 5.9),
    ("CC(C)(C)c1nsc(N2CCC(N3CCC[C@H](Nc4c(F)cc(S(C)(=O)=O)cc4F)C3=O)CC2)n1", 7.6),
    ("CC(C)c1nsc(N2CCC(N3CCC(Oc4ccc(-n5cnnn5)nc4)C3=O)CC2)n1 (stereo not drawn)", 12.8),
    ("Cn1cc(-c2nsc(N3CCC(N4CC[C@H](Oc5ccc(S(C)(=O)=O)cc5F)C4=O)CC3)n2)cn1", 6.2),
    ("Cc1nn(C)c(Oc2nsc(N3CCC(N4CC[C@H](Oc5ccc(S(C)(=O)=O)cc5F)C4=O)CC3)n2)c1C", 6.9),
    ("CC(C)c1nsc(N2CCC(N3CCC(Oc4ccc(C(=O)NCCN(C)C)cc4F)C3=O)CC2)n1 (stereo not drawn)", 11.7),
    ("CC(C)(C)c1nsc(N2CCC(N3CC[C@H](Oc4ccc(S(C)(=O)=O)cc4F)C3=O)CC2)n1", 26.1),
    ("CC(C)c1nsc(N2CCC(N3CC[C@H](Nc4cc(Cl)c(S(C)(=O)=O)cc4F)C3=O)CC2)n1", 16.0),
    ("CS(=O)(=O)c1cc(F)c(O[C@H]2CCN(C3CCN(c4cnc(C(F)(F)F)s4)CC3)C2=O)cc1F", 23.7),
    ("CCS(=O)(=O)c1ccc(NC2CCN(C3CCN(c4nc(C(C)C)ns4)CC3)C2=O)cc1C (stereo not drawn)", 16.4),
    ("CS(=O)(=O)c1cc(F)c(O[C@H]2CCN(C3CCN(c4nc(C(F)(F)F)ns4)CC3)C2=O)cc1F", 25.6),
    ("CCS(=O)(=O)c1ccc(OC2CCN(C3CCN(c4nc(CC(C)C)ns4)CC3)C2=O)c(F)c1 (stereo not drawn)", 14.5),
    ("CC(C)(C)n1nnc(N2CCC(N3CC[C@H](Oc4ccc(S(C)(=O)=O)cc4F)C3=O)CC2)n1", 16.7),
    ("Cc1nnc(-c2ccc(O[C@H]3CCN(C4CCN(c5nc(C(C)C)ns5)CC4)C3=O)c(F)c2)o1", 29.4),
    ("Cn1nccc1-c1nsc(N2CCC(N3CC[C@H](Oc4ccc(S(C)(=O)=O)cc4F)C3=O)CC2)n1", 10.6),
    ("CC(C)c1nsc(N2CCC(N3CC[C@H](Nc4ccc(S(=O)(=O)CC5CC5)cc4F)C3=O)CC2)n1", 23.2),
    ("CC(C)(C)c1nsc(N2CCC(N3CC[C@H](Oc4cc(F)c(S(C)(=O)=O)cc4F)C3=O)CC2)n1", 29.2),
    ("CS(=O)(=O)c1ccc(N[C@H]2CCN(C3CCN(c4nc([C@H](O)CO)ns4)CC3)C2=O)c(F)c1", 8.3),
    ("CC(C)c1nsc(N2CCC(N3CC[C@H](Oc4ccc(S(C)(=O)=O)cc4F)C3=O)CC2)n1", 15.1),
    ("CC(C)c1nsc(N2CCC(N3CCC(Oc4ccc(-n5cnnn5)cc4)C3=O)CC2)n1 (stereo not drawn)", 18.8),
    ("CC(C)c1nsc(N2CCC(N3CC[C@@H](Nc4ccc(S(=O)(=O)N(C)C)cc4F)C3=O)CC2)n1", 25.2),
    ("CS(=O)(=O)c1cc(F)c(N[C@H]2CCN(C3CCN(c4nc(C(F)(F)F)ns4)CC3)C2=O)c(F)c1", 11.8),
    ("COC(C)(C)c1nsc(N2CCC(N3CC[C@H](Oc4cc(F)c(S(C)(=O)=O)cc4F)C3=O)CC2)n1", 22.4),
    ("CC(C)c1nsc(N2CCC(N3CC[C@@H](Nc4ccc(S(=O)(=O)C5CC5)cc4F)C3=O)CC2)n1", 23.8),
    ("CC(C)c1nsc(N2CCC(N3CCC(Oc4ccc(C#N)cc4F)C3=O)CC2)n1 (stereo not drawn)", 7.4),
    ("CC(C)c1nsc(N2CCC(N3CCC(Oc4ccc(Br)cc4F)C3=O)CC2)n1 (stereo not drawn)", 16.9),
    ("CC(C)c1nsc(N2CCC(N3CCC[C@H](Nc4ccc(S(C)(=O)=O)cc4F)C3=O)CC2)n1", 17.5),
]
